Entries and their inhibition at 50 µM
Biological target: KLK5 (Homo sapiens)
Sequence (Q9Y337 23-293): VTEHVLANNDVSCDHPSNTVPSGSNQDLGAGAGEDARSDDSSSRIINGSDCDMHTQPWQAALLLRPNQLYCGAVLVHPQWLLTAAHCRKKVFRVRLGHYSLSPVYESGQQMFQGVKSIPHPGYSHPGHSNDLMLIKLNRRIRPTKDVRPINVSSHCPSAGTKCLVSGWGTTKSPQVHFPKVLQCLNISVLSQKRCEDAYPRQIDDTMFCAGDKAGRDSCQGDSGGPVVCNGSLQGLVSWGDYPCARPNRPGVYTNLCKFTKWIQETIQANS
Assay: KLK5 enzyme inhibition assay, fluorogenic substrate Boc-Val-Pro-Arg-AMC
Format: biochemical
Details: 50 μM; 37° C., 15 min of incubation, pH 8

[
  {
    "molecular-string": "O=C(Oc1cccc(F)c1)c1cc2cc(CCl)ccc2oc1=O",
    "inhibition at 50 µM (%)": 26
  },
  {
    "molecular-string": "CC(=O)OCc1ccc2oc(=O)c(C(=O)Oc3cccc(F)c3)cc2c1",
    "inhibition at 50 µM (%)": 23
  },
  {
    "molecular-string": "CCOC(=O)c1cc2cc(CCl)ccc2oc1=O",
    "inhibition at 50 µM (%)": 39
  },
  {
    "molecular-string": "CC(=O)OCc1ccc2oc(=O)c(C(=O)Oc3cccc(Cl)c3)cc2c1",
    "inhibition at 50 µM (%)": 31
  },
  {
    "molecular-string": "O=C(Oc1ccccc1)c1cc2cc(O)c(O)cc2oc1=O",
    "inhibition at 50 µM (%)": 32
  },
  {
    "molecular-string": "O=C(O)c1ccccc1OC(=O)c1cc2cc(CCl)ccc2oc1=O",
    "inhibition at 50 µM (%)": 37.4
  },
  {
    "molecular-string": "CCC(=O)OCc1ccc2oc(=O)c(C(=O)Oc3cncc(Cl)c3)cc2c1",
    "inhibition at 50 µM (%)": 22
  },
  {
    "molecular-string": "O=C(Oc1cccc(F)c1)c1cc2cc(CBr)ccc2oc1=O",
    "inhibition at 50 µM (%)": 42
  },
  {
    "molecular-string": "NCc1ccc2oc(=O)c(C(=O)Oc3cccc(Br)c3)cc2c1",
    "inhibition at 50 µM (%)": 27
  },
  {
    "molecular-string": "O=C(Oc1ccccc1)c1cc2cc(CCl)ccc2oc1=O",
    "inhibition at 50 µM (%)": 26
  }
]

---

Target: KLK5 (Homo sapiens, UniProt Q9Y337)
Sequence (Q9Y337 23-293): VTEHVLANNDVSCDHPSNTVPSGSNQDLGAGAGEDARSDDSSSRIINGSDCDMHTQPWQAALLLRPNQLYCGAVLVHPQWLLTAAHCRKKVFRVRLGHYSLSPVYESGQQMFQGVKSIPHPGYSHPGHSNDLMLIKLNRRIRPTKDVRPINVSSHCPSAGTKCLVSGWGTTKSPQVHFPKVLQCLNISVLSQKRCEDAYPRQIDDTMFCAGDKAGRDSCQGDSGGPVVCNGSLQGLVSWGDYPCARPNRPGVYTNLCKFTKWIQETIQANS
Test: KLK5 enzyme inhibition assay, fluorogenic substrate Boc-Val-Pro-Arg-AMC
Assay type: biochemical
Conditions: 100 μM; 37° C., 15 min of incubation, pH 8
endpoint: inhibition at 100 µM (%)

[
  {
    "compound": "O=C(Oc1cc(F)ccc1[N+](=O)[O-])c1cc2cc(CCl)ccc2oc1=O [CFL16]",
    "endpoint": "inhibition at 100 µM",
    "unit-of-measurement": "%",
    "assay-value": 40
  },
  {
    "compound": "CCOC(=O)c1cc2cc(COC(C)=O)ccc2oc1=O [LP43]",
    "endpoint": "inhibition at 100 µM",
    "unit-of-measurement": "%",
    "assay-value": 49
  },
  {
    "compound": "O=C(Oc1cccc(I)c1)c1cc2cc(CCl)ccc2oc1=O [LP14]",
    "endpoint": "inhibition at 100 µM",
    "unit-of-measurement": "%",
    "assay-value": 48
  },
  {
    "compound": "O=C(Oc1cccnc1)c1cc2cc(CCl)ccc2oc1=O [MFS33]",
    "endpoint": "inhibition at 100 µM",
    "unit-of-measurement": "%",
    "assay-value": 62
  },
  {
    "compound": "O=C(Oc1cccc(Cl)c1)c1cc2cc(CCl)ccc2oc1=O [LP8]",
    "endpoint": "inhibition at 100 µM",
    "unit-of-measurement": "%",
    "assay-value": 49
  },
  {
    "compound": "O=C(Oc1cc(F)ccc1Br)c1cc2cc(CCl)ccc2oc1=O [CFL15]",
    "endpoint": "inhibition at 100 µM",
    "unit-of-measurement": "%",
    "assay-value": 47
  },
  {
    "compound": "O=C(Oc1ccccc1Cl)c1cc2cc(CCl)ccc2oc1=O [MFS36]",
    "endpoint": "inhibition at 100 µM",
    "unit-of-measurement": "%",
    "assay-value": 50
  },
  {
    "compound": "CCOC(=O)c1cc2cc(C)ccc2oc1=O [Compound D5]",
    "endpoint": "inhibition at 100 µM",
    "unit-of-measurement": "%",
    "assay-value": 90
  },
  {
    "compound": "O=C(Oc1cc(F)ccc1F)c1cc2cc(CCl)ccc2oc1=O [CFL5]",
    "endpoint": "inhibition at 100 µM",
    "unit-of-measurement": "%",
    "assay-value": 35
  },
  {
    "compound": "CC(=O)c1cc2cc(C)ccc2oc1=O [Compound D9]",
    "endpoint": "inhibition at 100 µM",
    "unit-of-measurement": "%",
    "assay-value": 80
  },
  {
    "compound": "O=C(Sc1ccccc1)c1cc2cc(CCl)ccc2oc1=O [LP41]",
    "endpoint": "inhibition at 100 µM",
    "unit-of-measurement": "%",
    "assay-value": 32
  }
]

---

Molecular target: UniProtKB P49862
Sequence (P49862 30-253): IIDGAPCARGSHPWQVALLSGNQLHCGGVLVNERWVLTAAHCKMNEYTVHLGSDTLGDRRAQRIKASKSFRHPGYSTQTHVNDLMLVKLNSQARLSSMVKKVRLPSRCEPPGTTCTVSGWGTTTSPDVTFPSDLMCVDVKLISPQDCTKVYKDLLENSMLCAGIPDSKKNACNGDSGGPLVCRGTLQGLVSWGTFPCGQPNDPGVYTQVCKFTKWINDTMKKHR
Experiment: KLK7 enzyme inhibition assay, fluorogenic substrate Suc-Leu-Leu-Val-Tyr-AMC
Type: biochemical
Details: Table A; 37° C., 15 min of incubation, pH 8; read-out: IC50 (μM) KLK7
IC50 strictly under 8 µM means Condition met; at 8 µM or over means Condition not met.

[
  {
    "compound": "COC(=O)c1cc2cc(CCl)ccc2oc1=O [MFS2]",
    "tgt": "UniProtKB P49862",
    "category-label": "Condition not met"
  },
  {
    "compound": "CCOC(=O)c1cc2cc(CCl)ccc2oc1=O [MFS3]",
    "tgt": "UniProtKB P49862",
    "category-label": "Condition not met"
  },
  {
    "compound": "O=C(Oc1ccccc1Cl)c1cc2cc(CCl)ccc2oc1=O [MFS36]",
    "tgt": "UniProtKB P49862",
    "category-label": "Condition met"
  },
  {
    "compound": "CS(=O)(=O)NCc1ccc2oc(=O)c(C(=O)Oc3cccc(Cl)c3)cc2c1 [MH24]",
    "tgt": "UniProtKB P49862",
    "category-label": "Condition not met"
  },
  {
    "compound": "COc1cccc(OC(=O)c2cc3cc(CCl)ccc3oc2=O)c1 [LP55]",
    "tgt": "UniProtKB P49862",
    "category-label": "Condition not met"
  },
  {
    "compound": "O=C(Oc1cc(F)ccc1Br)c1cc2cc(CCl)ccc2oc1=O [CFL15]",
    "tgt": "UniProtKB P49862",
    "category-label": "Condition met"
  },
  {
    "compound": "O=C(Oc1cc(F)ccc1F)c1cc2cc(CCl)ccc2oc1=O [CFL5]",
    "tgt": "UniProtKB P49862",
    "category-label": "Condition met"
  },
  {
    "compound": "O=C(Oc1cccc(F)c1)c1cc2cc(CCl)ccc2oc1=O [LP51]",
    "tgt": "UniProtKB P49862",
    "category-label": "Condition met"
  },
  {
    "compound": "O=C(Oc1ccc(Cl)cc1)c1cc2cc(CCl)ccc2oc1=O [LP7]",
    "tgt": "UniProtKB P49862",
    "category-label": "Condition met"
  },
  {
    "compound": "NCc1ccc2oc(=O)c(C(=O)Oc3cccc(Br)c3)cc2c1 [IK48]",
    "tgt": "UniProtKB P49862",
    "category-label": "Condition not met"
  },
  {
    "compound": "O=C(Oc1cc(Cl)ccc1Cl)c1cc2cc(CCl)ccc2oc1=O [LP74]",
    "tgt": "UniProtKB P49862",
    "category-label": "Condition met"
  }
]
